# experimentalTarget: Tyrosine-protein kinase ZAP-70 (Homo sapiens, UniProt P43403)
# Sequence (P43403 whole entry): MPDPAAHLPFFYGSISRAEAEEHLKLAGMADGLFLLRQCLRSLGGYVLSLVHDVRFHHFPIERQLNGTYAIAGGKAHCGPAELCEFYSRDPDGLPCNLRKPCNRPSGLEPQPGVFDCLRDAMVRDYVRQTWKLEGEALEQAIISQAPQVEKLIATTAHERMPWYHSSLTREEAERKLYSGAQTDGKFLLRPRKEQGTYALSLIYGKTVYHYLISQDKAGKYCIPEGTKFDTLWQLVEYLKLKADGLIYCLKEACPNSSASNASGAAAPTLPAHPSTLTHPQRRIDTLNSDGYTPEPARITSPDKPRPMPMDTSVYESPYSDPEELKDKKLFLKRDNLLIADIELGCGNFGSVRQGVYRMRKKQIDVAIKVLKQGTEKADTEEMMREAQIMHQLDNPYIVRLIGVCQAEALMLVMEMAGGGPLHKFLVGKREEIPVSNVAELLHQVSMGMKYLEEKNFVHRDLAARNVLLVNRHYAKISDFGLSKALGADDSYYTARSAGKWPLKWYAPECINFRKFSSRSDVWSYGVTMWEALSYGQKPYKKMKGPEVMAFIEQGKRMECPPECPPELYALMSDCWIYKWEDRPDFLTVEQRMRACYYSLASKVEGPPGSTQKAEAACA
pIC50: −log10 of the molar value.
Multi-source literature compilation: pIC50 on Tyrosine-protein kinase ZAP-70 (Homo sapiens, UniProt P43403).
measurementType: pIC50

[
  {
    "compound": "COC(=O)[C@]1(O)Cn2c3ccccc3c3c4c(c5c6ccccc6n(c5c32)C[C@H]1O)C(=O)NC4=O (relative stereo)",
    "assayValue": "< 6.00"
  },
  {
    "compound": "Cc1nc2cc(N[C@@H]3CCCC[C@@H]3N)nc(Nc3cccc4c(C)c[nH]c34)c2c(=O)[nH]1",
    "assayValue": "< 5.00"
  },
  {
    "compound": "Cc1cc([C@@H](C)Nc2ccccc2C(=O)O)c2nc(N3CCOCC3)cc(=O)n2c1",
    "assayValue": "< 3.00"
  },
  {
    "compound": "Cc1cccc(Cl)c1Nc1nc2ccc(N3CCN[C@@H](C)C3)nc2n2cncc12",
    "assayValue": "< 6.00"
  },
  {
    "compound": "C[C@@H]1CCN(C(=O)CC#N)C[C@@H]1n1ccc2cnc3[nH]cc(C#N)c3c21",
    "assayValue": "< 6.00"
  }
]
